Source: PubChem BioAssay (NCI)

Tested on: M14 melanoma
protocol-details: NCI-60 one-dose screen, 48 h
experimental-conditions: 10 µM unless noted
About 83,000 compounds went through this panel and 20% of them were active in at least one assay; those are over-represented in the sample as a whole. Calls of active or inactive are those of the source. How the source made its calls: active means growth percent below 10; inactive means the rest.
// one of True for active, False for inactive, no free text

Dear all, I need the recorded test outcome for Cc1nn(-c2ccccc2)c(N2CCOCC2)c1-c1nc2ccc([N+](=O)[O-])cc2[nH]1 , thank you.
False

Lookup C=C(CC(=O)OC)C(C)=O
False

Lookup Cc1nc(Cl)cc(N(c2cc(Cl)nc(C)n2)c2ncc(C(=O)Nc3c(C)cccc3Cl)s2)n1
False

Lookup CCN(CCO)CCC(=O)c1ccc([N+](=O)[O-])cc1
False

Lookup Cn1cc(-c2nnc(-c3cn(C)c4ncc(Br)cc34)s2)c2cc(Br)ccc21
False

Lookup CCOc1ccc(S(=O)(=O)Nc2ccc3c(c2)N(S(=O)(=O)CC)CCC3)cc1
False

Lookup Nc1ccc2c(c1)Cc1cc(NC(=O)C(F)(F)F)ccc1-2
False

Lookup COc1ccc(C2=C(c3cn(C)c4ccccc34)C(=O)OC2)cc1OC
False

Lookup CCn1cc(-c2ccnc(NCCNS(=O)(=O)c3cccc4ccccc34)c2)c(-c2cccc(O)c2)n1
False

Lookup C#C[C@]1(O)CC[C@H]2[C@@H]3CC=C4c5nc(Nc6ccccn6)sc5CC[C@]4(C)[C@H]3CC[C@@]21C
True

Lookup c1nc(N2CCOCC2)c2[nH]ccc2n1
False

Lookup COc1cc2c(O)n(CCCN3CCOCC3)c3c4cnc5cccc(c(=O)c3c2cc1OC)c54
False

Lookup CC(C)C1=NOC(=O)C1=Cc1cn(-c2cccnc2)nc1-c1ccccc1
False

Lookup Oc1c(CNCCNCc2cc(Cl)cc(Cc3ccccc3)c2O)cc(Cl)cc1Cc1ccccc1
True

Lookup CC(=O)O.CC(=O)O.O.[Fe]
False

Lookup Cc1cc(-c2ccc(N=Nc3c(S(=O)(=O)O)cc4cc(S(=O)(=O)O)cc(N)c4c3O)c(C)c2)ccc1N=Nc1cc(S(=O)(=O)O)c2ccccc2c1O
False

Lookup CCN(CCNc1ccc(C)c2sc3cc(Cl)ccc3c(=O)c12)CC(C)O (stereo unspecified)
True

Lookup Cc1ccc2c(c1)/C(=N\N=C/c1cn(C(C)C)c3ccccc13)C(=O)N2
False

Lookup Cc1ccc(Cn2c(O)c(N=NC(=O)c3ccc(S(N)(=O)=O)cc3)c3ccccc32)cc1
False

Lookup CCCCNC(=O)NS(=O)(=O)Cc1ccccc1
False

Lookup O=C1/C(=C\c2cn(CC(O)CN3CCCCC3)c3ccccc23)c2ccccc2N1c1c(Cl)cccc1Cl (stereo unspecified)
True

====

Test system: PC-3 prostate
protocol-details: NCI-60 one-dose screen, 48 h (100 = growth as untreated, 0 = no growth, -100 = all killed)
experimental-conditions: 10 µM unless noted
Compounds without any hit were thinned out: in the full panel of roughly 83,000, 20% have a hit. Calls of active or inactive are those of the source. How the source made its calls: active means growth percent below 10; inactive means the rest.
measured-endpoint: growth

Hello, I am looking for reported growth with PC-3 prostate for C[n+]1cccc(NC(=O)c2ccc3ccc4ccc(C(=O)Nc5ccc[n+](C)c5)nc4c3n2)c1 . Could you help?
55.3% (inactive)

Lookup CN(C)CCCNc1nc(-c2cccc(C(Cl)(Cl)Cl)c2)nc(C(Cl)(Cl)Cl)n1
98.4% (inactive)

Lookup CCN(CC)c1cc(N)c(Cc2c(N)cc(N(CC)CC)cc2Cl)c(Cl)c1
38.4% (inactive)

Lookup COc1ccc(-c2cc(-c3ccc(Cl)cc3)nc(SCCCCCCC(=O)NO)n2)cc1
49.2% (inactive)

Lookup O=C(NCCCNC(=O)OCc1ccc2cccc(O)c2n1)OCc1ccc2cccc(O)c2n1
56.6% (inactive)

Lookup CCCCN(CCCC)CC(O)c1ccc(OCc2ccccc2)c2ccccc12 (configuration not stated)
63.6% (inactive)

Lookup CCc1ccc(-c2ccc(COc3ccc(CC4SC(=O)NC4=O)cc3)cc2)cc1 (configuration not stated)
65.6% (inactive)

Lookup COc1cc2c(c(OC)c1OC)-c1cc(I)c(O)cc1[C@@H](NC(C)=O)CC2
28.8% (inactive)

Lookup O=C(NNc1ccc(-c2ccccc2)nn1)c1ccc(F)cc1
105% (inactive)

Lookup ClC1=C(Cl)C(Cl)=C(Cl)C1=Cc1ccccc1
-10.3% (active)

Lookup CCCCNC(=O)NS(=O)(=O)Cc1ccccc1
102% (inactive)

Lookup O=[N+]([O-])c1ccc(O)c(-c2nc3ccccc3s2)c1
70.6% (inactive)

Lookup Cc1cnc(N)nc1OCCNC(=O)c1cccc(-c2ccc(S(=O)(=O)Nc3ccc4c(c3)N(C(=O)C3CC3)CCC4)cc2)c1
53.5% (inactive)

Lookup Cc1ccc(-c2cc(-c3ccc(C)cc3)nc(N3CCN(CCNc4ccnc5cc(Cl)ccc45)CC3)n2)cc1
44.6% (inactive)

Lookup Cc1ccc2c(c1)/C(=N\N=C/c1cn(C(C)C)c3ccccc13)C(=O)N2
34.7% (inactive)

Lookup CCOC(CNC(=O)c1cccc([N+](=O)[O-])c1)OCC
102% (inactive)

Lookup Cc1nc(Cl)c2c(n1)N(C)c1ccc(Cl)cc1C(C)C2 (configuration not stated)
73.5% (inactive)

Lookup C#CCC(C(=O)OCC)C(=O)OCC
99.8% (inactive)

Lookup CCOc1cc(NC(=O)c2ccccc2)c(OCC)cc1N
104% (inactive)

Lookup CC1(C(=O)O)CCC(N)(C(=O)O)C1(C)C (configuration not stated)
88.8% (inactive)

Lookup CCN1CCN(CC(=O)Nc2nc3ccc(NCc4ccc(Cl)cc4)cc3s2)CC1
52.7% (inactive)

Lookup CC(C)C1=NOC(=O)C1=Cc1cn(-c2ccco2)nc1-c1ccccc1
78% (inactive)

Lookup CCOc1ccc(/C=C(\C#N)c2cc3ccccc3[nH]2)cc1
68.2% (inactive)

Lookup COc1ccc(CC(C#N)c2ccc(Cl)cc2)cc1 (configuration not stated)
85.9% (inactive)

Lookup O=C1C(Cl)=C(Nc2ccc3cn[nH]c3c2)C(=O)c2ccccc21
-42% (active)

Lookup C[C@@H](NC(=O)[C@@H](CC(=O)N1CCC(N2CCCCC2)CC1)N1C(=O)[C@@H](N2C(=O)OC[C@@H]2c2ccccc2)[C@H]1/C=C/c1cccc(Cl)c1)c1ccccc1
56.1% (inactive)

Lookup Clc1ccccc1/C=N\Nc1ccccn1
104% (inactive)

Lookup COc1cc(C)cc2oc3oc(=N)c(C(=O)c4ccccc4)cc3c(=O)c12
103% (inactive)

Lookup O=C(Nc1ccc(Nc2ccncc2)cc1)c1ccc([N+](=O)[O-])cc1
70% (inactive)

Lookup Cc1cccc(/C=C2\N=C(c3ccccc3)N(c3ccc(S(N)(=O)=O)cc3)C2=O)c1
92.9% (inactive)

Lookup COc1ccc(C(=O)c2nccc3cc(OC)c(OC)cc23)cc1OC
95.9% (inactive)

Lookup COc1ccc(/C=C(/C2=NCCN2)n2ccc3ccccc32)cc1
73.4% (inactive)

Lookup C=C(C)C1CCC2(C(=O)O)CCC3(C)C(CCC4C5(C)CCC(OC(=O)NCc6ccccc6)C(C)(C)C5CCC43C)C12 (configuration not stated)
41.2% (inactive)

Lookup Cc1ccc(NCCN2CCCCC2)c2c(=O)c3ccccc3sc12
38.2% (inactive)

Lookup CC1(C)[C@@H](NOCCCN)CC[C@]2(C)[C@H]3C(=O)C=C4[C@@H]5C[C@](C)(C(=O)O)CC[C@]5(C)CC[C@@]4(C)[C@]3(C)CC[C@@H]12
-19.6% [100 µM] (active)

Lookup O=C(O)c1cc([N+](=O)[O-])ccc1Br
100% (inactive)

Lookup Cc1ccc(S(=O)(=O)Oc2ccc([N+](=O)[O-])cc2[N+](=O)[O-])cc1
83.6% (inactive)

Lookup CC1=CC[C@@H]2C(C)(C)[C@@H](O)CC[C@@]2(C)[C@@H]1COc1ccc2ccc(=O)oc2c1
30.6% (inactive)

Lookup Cn1cc(-c2nnc(-c3cn(C)c4ncc(Br)cc34)o2)c2ccccc21
77.2% (inactive)

Lookup Nc1nc(Cl)c2ncn(Cc3cc4c(cc3I)OCO4)c2n1
39.1% (inactive)

Lookup CCOC(=O)c1nc2c3ccccc3ccn2c1C(=O)OC
105% (inactive)

Lookup CC(C)c1ccc(C(=O)Nc2nc3ccc(O)cc3s2)cc1
42.4% (inactive)

====

Test system: RXF 393 renal
protocol-details: NCI-60 one-dose screen, 48 h
experimental-conditions: 10 µM unless noted
The panel holds about 83,000 compounds, 20% with a hit somewhere; the sample as a whole holds those more often. Active and inactive are the calls of the source. How the source made its calls: active means growth percent below 10; inactive means the rest.
// one of active, inactive, no free text

Dear all, I need the recorded test outcome for O=C(Nc1cccc(F)c1)c1cc(=O)[nH]c2cc(Br)ccc12 , thank you.
inactive

Lookup Nc1nc(Cl)c2ncn(Cc3cc4c(cc3I)OCO4)c2n1
inactive

Lookup Cn1ncc2c(Nc3ccc(O)cc3)nc(Cl)nc21
inactive

Lookup Nc1cc(C(=O)O)[nH]c(=S)n1
inactive

Lookup COC(=O)[C@@H](NC(=O)NC(=O)NC(=O)CI)C(C)C
inactive

Lookup Cc1ccccc1-n1nnc(C(=O)Nc2nc3ccc(F)cc3s2)c1C
inactive

Lookup C=C(C)[C@@H]1CC[C@]2(C(=O)N3CCN(C)CC3)CC[C@]3(C)[C@H](CC[C@@H]4[C@@]5(C)C/C(=C/c6ccncc6)[C@H](O)C(C)(C)[C@@H]5CC[C@]43C)[C@@H]12
active

Lookup C=C(C)[C@@H]1CC[C@]2(COCCC#N)CC[C@]3(C)[C@H](CC[C@@H]4[C@@](C)(CCCNCCC#N)[C@H](C(=C)C)CC[C@]43C)[C@@H]12
active

Lookup O=C1Nc2ccccc2/C1=C/C(=O)c1ccc(N2CCOCC2)cc1
inactive

Lookup ClC1=C(Cl)C(Cl)=C(Cl)C1=Cc1ccccc1
active

Lookup CCOC(=O)CCC[P+](c1ccccc1)(c1ccccc1)c1ccccc1
inactive

Lookup CC(C)=CC/C=C(/C)[C@H]1CC[C@]2(C)[C@@H]1CC[C@@H]1[C@@]3(C)CCC(=O)NC(C)(C)[C@@H]3CC[C@]12C
active

Lookup Cc1ccc(-n2nc3n(/c2=N\C(=O)NS(=O)(=O)c2ccc(C)cc2)CCN3C2=NCCN2)cc1
inactive

Lookup C1=C[C@H]2O[C@@H]1c1ccc3[nH]ccc3c12
inactive

Lookup C#C[C@]1(O)CC[C@H]2[C@@H]3CC=C4c5nc(N)sc5CC[C@]4(C)[C@H]3CC[C@@]21C
active

Lookup CCOc1cc(NC(=O)c2ccccc2)c(OCC)cc1N
inactive

Lookup COc1ccc(C2CC(c3ccc4ccccc4c3)=NN2c2nc(O)c(C3=c4cc(OC)ccc4=NC3=O)s2)cc1 (centres undefined)
active

Lookup COc1ccc(NC(=O)Nc2ccc(-c3cccnc3)cc2N2CCC(CO)CC2)cc1
inactive

Lookup C#C[C@]1(O)CC[C@H]2[C@@H]3CC=C4c5nc(Nc6ccccc6[N+](=O)[O-])sc5CC[C@]4(C)[C@H]3CC[C@@]21C
active
